- measuredOn: SHP-2 enzyme (Homo sapiens)
- Construct: Homogeneous Full Length SHP-2 Assay Kit (BPS Bioscience #79330)
- Sequence (Q06124 whole entry): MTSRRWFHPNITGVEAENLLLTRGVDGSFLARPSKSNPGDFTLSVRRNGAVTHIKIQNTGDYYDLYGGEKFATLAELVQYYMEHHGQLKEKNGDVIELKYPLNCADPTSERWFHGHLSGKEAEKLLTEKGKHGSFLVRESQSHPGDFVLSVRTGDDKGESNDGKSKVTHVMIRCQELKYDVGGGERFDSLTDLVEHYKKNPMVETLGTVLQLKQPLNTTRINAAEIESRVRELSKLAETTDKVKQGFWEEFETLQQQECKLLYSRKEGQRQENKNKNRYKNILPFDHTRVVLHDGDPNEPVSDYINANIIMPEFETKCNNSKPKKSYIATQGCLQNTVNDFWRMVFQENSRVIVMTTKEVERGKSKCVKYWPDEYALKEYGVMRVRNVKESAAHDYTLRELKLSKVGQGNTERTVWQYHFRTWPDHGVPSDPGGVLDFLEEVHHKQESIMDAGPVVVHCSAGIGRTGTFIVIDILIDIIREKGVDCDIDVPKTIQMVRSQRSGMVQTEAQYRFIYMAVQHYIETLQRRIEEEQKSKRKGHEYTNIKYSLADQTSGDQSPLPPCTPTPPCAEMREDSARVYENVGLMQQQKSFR
- experimentalDetails: Phosphatase activity assay (Homogeneous Full Length SHP-2 Assay Kit, DiFMUP substrate)
- runConditions: full length SHP-2 activated with 0.5 μM SHP-2 activating Peptide; 1 hour co-incubation; DiFMUP 50 μM, 30 min
readoutKind: IC50 (nM)
Express your answer in nM, writing the number without its unit.

stdin: What reported IC50 corresponds to COc1ccc2c(c1)C(N)C1(CCN(c3cnc(C(=O)N4Cc5sc(N)nc5C(C)(C)C4)c(N)n3)CC1)C2 (stereo not shown) on SHP-2 enzyme (Homo sapiens)?
stdout: 8

stdin: So what IC50 did Cc1nc(C(=O)N2CCCn3nccc32)c(N)nc1N1CCC2(CC1)Cc1ccc(F)cc1C2N (stereo not shown) get with SHP-2 enzyme (Homo sapiens)?
stdout: 5

stdin: // lookup IC50 | system=SHP-2 enzyme (Homo sapiens) | key= CC1(C)CN(C(=O)c2ncc(N3CCC4(CC3)Cc3ccccc3C4N)nc2N)c2cccnc21 (stereo not shown)
stdout: 18

stdin: # returns recorded IC50 (system: SHP-2 enzyme (Homo sapiens)) for Nc1ccc2c(n1)CCN2C(=O)c1ncc(N2CCC3(CC2)Cc2ccncc2C3N)nc1N (stereo not shown)
stdout: 10

stdin: Hi! What's the reported IC50 for Cc1ccc2c(c1)C(N)C1(CCN(c3cnc(C(=O)N4Cc5sc(N)nc5C(C)(C)C4)c(N)n3)CC1)C2 (stereo not shown) on SHP-2 enzyme (Homo sapiens)?
stdout: 11

stdin: Report IC50 for N#Cc1ccc2c(c1)C(N)C1(CCN(c3cnc(C(=O)N4CCCn5nccc54)c(N)n3)CC1)C2 (stereo not shown) tested on SHP-2 enzyme (Homo sapiens).
stdout: 6

stdin: Checklist item: IC50 tested on SHP-2 enzyme (Homo sapiens), entry Nc1nc(N2CCC3(CC2)Cc2ccccc2C3N)c(Cl)nc1C(=O)N1CCCn2nccc21 (stereo not shown) , value?
stdout: 4

----------
- measuredOn: SHP-2 enzyme (Homo sapiens)
- Construct: Homogeneous Full Length SHP-2 Assay Kit (BPS Bioscience #79330)
- experimentalDetails: Phosphatase activity assay (Homogeneous Full Length SHP-2 Assay Kit, DiFMUP substrate)
- runConditions: full length SHP-2 activated with 0.5 μM SHP-2 activating Peptide; 1 hour co-incubation; DiFMUP 50 μM, 30 min
readoutKind: IC50 (nM)
Number in nM, nothing else.

stdin: Identify the measured IC50 of NC(=O)c1nc(C(=O)N2CCCn3nccc32)cnc1N1CCC2(CC1)Cc1ccccc1C2N (stereo not shown) for SHP-2 enzyme (Homo sapiens).
stdout: 22

stdin: Under SHP-2 enzyme (Homo sapiens): IC50 value of N[C@@H]1c2ccccc2CC12CCN(c1cnc(C(=O)N3CCCc4ncccc43)cn1)CC2 [Compound D1, reference compound] ?
stdout: 37

stdin: What IC50 appears in the records for this molecule with SHP-2 enzyme (Homo sapiens)? Nc1nc(N2CCC3(CC2)Cc2ccccc2C3N)cnc1C(=O)N1CCc2ncncc21 (stereo not shown)
stdout: 35

stdin: Give SHP-2 enzyme (Homo sapiens) IC50 for CC1(C)CN(C(=O)c2ncc(N3CCC4(CC3)Cc3ccccc3C4N)nc2N)Cc2sc(N)nc21 (stereo not shown)
stdout: 7

stdin: Query the reported IC50 for SHP-2 enzyme (Homo sapiens); item: Nc1nc(N2CCC3(CC2)Cc2sc(Cl)nc2C3N)cnc1C(=O)N1CCCn2nccc21 (stereo not shown)
stdout: 15

stdin: # query: IC50 | item Nc1nc(N2CCC3(CC2)Cc2ccccc2C3N)cnc1C(=O)N1CCc2nc(Cl)ccc21 (stereo not shown) | system: SHP-2 enzyme (Homo sapiens)
stdout: 4

stdin: Recorded IC50 for Nc1nc(N2CCC3(CC2)Cc2cc(F)ccc2C3N)cnc1C(=O)N1CCc2nc(F)ccc21 (stereo not shown) with SHP-2 enzyme (Homo sapiens), please?
stdout: 4

stdin: Checklist item: IC50 tested on SHP-2 enzyme (Homo sapiens), entry Nc1nc(N2CCC3(CC2)Cc2ccccc2C3N)cnc1C(=O)N1CCc2ncccc21 (stereo not shown) , value?
stdout: 6

stdin: Hello, I am looking for reported IC50 with SHP-2 enzyme (Homo sapiens) for COc1ccc2c(c1)C(N)C1(CCN(c3cnc(C(=O)N4CCc5nc(N)sc5C4)c(N)n3)CC1)C2 (stereo not shown) . Could you help?
stdout: 4

stdin: Kindly state the measured IC50 obtained for Nc1nc(N2CCC3(CC2)Cc2ccccc2C3N)cnc1C(=O)N1CCc2nc(F)ccc21 (stereo not shown) with SHP-2 enzyme (Homo sapiens).
stdout: 4

stdin: Requested read-out IC50, target or system SHP-2 enzyme (Homo sapiens), entry Cc1nc(C(=O)N2Cc3sc(N)nc3C(C)(C)C2)c(N)nc1N1CCC2(CC1)Cc1ccccc1C2N (stereo not shown)
stdout: 18

stdin: Hello, I am looking for reported IC50 with SHP-2 enzyme (Homo sapiens) for Nc1nc(N2CCC3(CC2)Cc2ccccc2C3N)cnc1C(=O)N1CCOc2ncccc21 (stereo not shown) . Could you help?
stdout: 24

stdin: Checklist item: IC50 tested on SHP-2 enzyme (Homo sapiens), entry Cc1ccc2c(c1)C(N)C1(CCN(c3ncc(C(=O)N4Cc5sc(N)nc5C(F)(F)C4)nc3CO)CC1)C2 (stereo not shown) , value?
stdout: 6

stdin: Record lookup: for SHP-2 enzyme (Homo sapiens), what IC50 belongs to Cn1c(N2CCC3(CC2)Cc2ccccc2C3N)nc(N)c(C(=O)N2CCCn3nccc32)c1=O (stereo not shown) ?
stdout: 59

stdin: API: value(readout=IC50, system=SHP-2 enzyme (Homo sapiens)) for record Cc1nc(C(=O)N2CCc3nc(N)sc3C2)c(N)nc1N1CCC2(CC1)Cc1ccccc1C2N (stereo not shown)
stdout: 4

stdin: Request: IC50, test system SHP-2 enzyme (Homo sapiens), entry Nc1nc(N2CCC3(CC2)Cc2ccccc2C3N)cnc1C(=O)N1CCc2ncsc2C1 (stereo not shown)
stdout: 4

All figures here come from patent US20240025924A1.
